MEASUREMENT_DESCRIPTION: Pharmacokinetic studies in male Sprague-Dawley rats
Type: in vivo
STUDY_CONDITIONS: male, Sprague-Dawley, plasma; rat, PO (3.2 mg/kg)
Protocol: Pharmacokinetic properties of select compounds were assessed in male Sprague-Dawley rats. […] Immediately prior to dosing, the body weight of each animal was recorded. Doses (rounded to the nearest 0.001 mL) were calculated based on the pretreatment body weight (kg) and a dose volume of 2.5 mL/kg for intravenous administration and 5 mL/kg for oral administration. […]

[
  {
    "MOLECULE": "CONC(=O)c1cc2c(Oc3ccc(NC(=O)C4(C(=O)Nc5ccc(F)cc5)CC4)cc3)ccnc2cc1OC [Compound 17]",
    "Cmax": "3.4 µM"
  }
]

These measurements were taken from patent US11542259B2.
